Tested on: Glutathione S-transferase P (GSTP1_HUMAN)
assay.summary: LC–MS proteome analysis, GSTP1
Format: cell-based, Homo sapiens
experimental.setup: SW620, 24 h, IC50 concentration, % of control
Method: Enzymes involved in oxidoreductive potential were analyzed in the cell lysates obtained after treatment cells with selected conjugates for 24 h. Cells were washed with phosphate-buffered saline (PBS) and harvested, then centrifuged at 1000× g for 10 min. […] Protein concentration was measured by the Bradford method. […] The collected spectra were analyzed and calibrated using DataAnalysis software (Bruker) and then identified in ProteinScape (Bruker) by the MASCOT server. […]
measured.metric: Protein Intensity, % (GSTP1)
Write down the value, and be sure its unit follows.

The following compounds have reported results that may help.
>  <chemical.structure>
O=[N+]([O-])c1cc([N+]2=C(Nc3ccccc3F)[S][Cu-2]23[S]C(Nc2ccccc2F)=[N+]3c2ccc(Cl)c([N+](=O)[O-])c2)ccc1Cl

>  <Protein Intensity, % (GSTP1)>
67.3%

$$$$
>  <chemical.structure>
O=[N+]([O-])c1cc([N+]2=C(Nc3ccc(I)cc3)[S][Cu-2]23[S]C(Nc2ccc(I)cc2)=[N+]3c2ccc(Cl)c([N+](=O)[O-])c2)ccc1Cl

>  <Protein Intensity, % (GSTP1)>
57.5%

$$$$
>  <chemical.structure>
O=[N+]([O-])c1cc([N+]2=C(Nc3ccccc3Br)[S][Cu-2]23[S]C(Nc2ccccc2Br)=[N+]3c2ccc(Cl)c([N+](=O)[O-])c2)ccc1Cl

>  <Protein Intensity, % (GSTP1)>
74.4%

$$$$

Please turn your attention to the following entry.
// recorded Protein Intensity, % (GSTP1) for O=[N+]([O-])c1cc([N+]2=C(Nc3ccc(Br)cc3)[S][Cu-2]23[S]C(Nc2ccc(Br)cc2)=[N+]3c2ccc(Cl)c([N+](=O)[O-])c2)ccc1Cl : 64.5%

---

Tested on: S. epidermidis 438
assay.summary: MIC, hospital MRSE strain
Format: cell-based, Staphylococcus epidermidis
experimental.setup: hospital MRSE S. epidermidis 438
measured.metric: MIC (µg/mL)
Report the value in µg/mL with no unit label.

Sample records with MIC:
>  <compound>
O=[N+]([O-])c1cc([N+]2=C(Nc3ccc(Br)cc3)[S][Cu-2]23[S]C(Nc2ccc(Br)cc2)=[N+]3c2ccc(Cl)c([N+](=O)[O-])c2)ccc1Cl [Compound 3]

>  <measured.metric>
MIC

>  <numeric.result>
4

$$$$
>  <compound>
O=[N+]([O-])c1cc([N+]2=C(Nc3ccccc3F)[S][Cu-2]23[S]C(Nc2ccccc2F)=[N+]3c2ccc(Cl)c([N+](=O)[O-])c2)ccc1Cl [Compound 7]

>  <measured.metric>
MIC

>  <numeric.result>
8

$$$$
>  <compound>
O=[N+]([O-])c1cc([N+]2=C(Nc3ccccc3Br)[S][Cu-2]23[S]C(Nc2ccccc2Br)=[N+]3c2ccc(Cl)c([N+](=O)[O-])c2)ccc1Cl [Compound 1]

>  <measured.metric>
MIC

>  <numeric.result>
8

$$$$
>  <compound>
O=[N+]([O-])c1cc([N+]2=C(Nc3ccc(I)cc3)[S][Cu-2]23[S]C(Nc2ccc(I)cc2)=[N+]3c2ccc(Cl)c([N+](=O)[O-])c2)ccc1Cl [Compound 8]

>  <measured.metric>
MIC

>  <numeric.result>
8

$$$$

Please examine the following record next.
For the compound O=[N+]([O-])c1cc([N+]2=C(Nc3ccc(Cl)c(Cl)c3)[S][Cu-2]23[S]C(Nc2ccc(Cl)c(Cl)c2)=[N+]3c2ccc(Cl)c([N+](=O)[O-])c2)ccc1Cl [Compound 5] , the measured MIC on S. epidermidis 438 was 32
